B1: library; numbered along this chain (parent)
chain: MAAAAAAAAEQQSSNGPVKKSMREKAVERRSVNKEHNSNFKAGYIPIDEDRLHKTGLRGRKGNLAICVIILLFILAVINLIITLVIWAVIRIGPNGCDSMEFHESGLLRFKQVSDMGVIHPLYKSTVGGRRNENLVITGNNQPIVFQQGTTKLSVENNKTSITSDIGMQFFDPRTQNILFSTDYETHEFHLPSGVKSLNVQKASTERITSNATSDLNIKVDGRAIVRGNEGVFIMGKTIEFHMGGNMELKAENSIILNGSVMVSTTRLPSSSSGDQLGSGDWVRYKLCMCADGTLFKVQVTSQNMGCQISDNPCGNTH

Variants of: B1
Assay: SGCB cell-surface expression functional score (HA stain, bin4 vs bin1, normalised to synonymous) (log10 ratio); higher = more cell-surface SGCB (functional)
Could you label it fulfilled if measured SGCB cell-surface expression functional score (log10) is 0.1 or higher, and not fulfilled otherwise?

**Query** Quick check, SGCB cell-surface expression functional score (log10) >= 0.1? "L277K"
**Result** not fulfilled

**Query** Can you check "K124R" next?
**Result** fulfilled

**Query** Can you check "Q308R" next?
**Result** fulfilled

**Query** Can you check "L135T" next?
**Result** not fulfilled
